Molecular target: BCAT2 (Homo sapiens)
Sequence (O15382 28-392): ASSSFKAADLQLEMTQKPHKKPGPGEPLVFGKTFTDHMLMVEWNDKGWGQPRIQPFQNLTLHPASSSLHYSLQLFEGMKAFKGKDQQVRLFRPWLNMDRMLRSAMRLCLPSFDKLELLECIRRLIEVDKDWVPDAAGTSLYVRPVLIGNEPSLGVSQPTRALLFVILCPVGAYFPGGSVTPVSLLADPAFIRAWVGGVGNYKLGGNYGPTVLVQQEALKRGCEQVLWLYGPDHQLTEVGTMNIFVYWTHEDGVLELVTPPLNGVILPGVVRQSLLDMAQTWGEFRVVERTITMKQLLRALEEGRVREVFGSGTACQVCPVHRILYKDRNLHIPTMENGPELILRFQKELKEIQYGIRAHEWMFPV
Experiment: BCAT2 in vitro enzyme inhibition assay (resazurin/diaphorase-coupled fluorescence)
Format: biochemical
Details: average where tested multiple times
Readout Label: IC50

{"Molecule": "CO[C@H]1C[C@@H](NC(=O)c2ncc(Cl)s2)C[C@@H](n2c(CC(C)C)nc3cnc(-n4nccn4)cc32)C1 (single isomer, unassigned)", "Result": "500 to 1000 nM"}

Just so you know, measured IC50 for CC(C)Cc1nc2cnc(-c3ccn(C)n3)cc2n1[C@@H]1CCC[C@H](NC(=O)c2ncc(Cl)s2)[C@H]1O came out at ≤ 100 nM

Documented IC50 of CO[C@@H]1[C@@H](NC(=O)c2ncc(Cl)s2)CCC[C@H]1n1c(-c2ccccc2F)nc2cnc(-c3nc[nH]n3)cc21 : ≤ 100 nM

GET /value?item= CC(C)Cc1nc2cnc(-c3ccccn3)cc2n1[C@@H]1C[C@@H](O)C[C@H](NC(=O)c2ncc(Cl)s2)C1 (single isomer, unassigned) &field=IC50 returns ≤ 100 nM

response.value for O=C(N[C@H]1CCC[C@@H](n2c(OCC(F)(F)F)nc3cnc(-n4nccn4)cc32)C1)c1ncc(Cl)s1 (field: IC50) = 100 to 500 nM

Per the record, CO[C@@H]1C[C@@H](NC(=O)c2ncc(Cl)s2)C[C@@H](n2c(CC(C)(C)C)nc3cnc(-c4ccccn4)cc32)C1 (single isomer, unassigned) has IC50 of > 1000 nM

###

biological target: BCAT2 (Homo sapiens, UniProt O15382); assay: BCAT2 in vitro enzyme inhibition assay (resazurin/diaphorase-coupled fluorescence); type: biochemical; conditions: average where tested multiple times
Readout Label: IC50

These recorded examples may help you get a feel for the data.
{"Molecule": "CC(Oc1nc2cnc(-n3nccn3)cc2n1[C@@H]1CCC[C@H](NC(=O)c2ncc(C(F)F)s2)C1)C(F)(F)F (some centres unmarked) [Example 98]", "Result": "0.1 to 0.5 µM"}
{"Molecule": "CC(C)Cc1nc2cnc(-c3ncn(C)n3)cc2n1[C@@H]1CCC[C@H](NC(=O)c2ncc(Cl)s2)C1 [Example 358]", "Result": "≤ 0.1 µM"}

Then this molecule:
Data point: O=C(NC1CCCC(n2c(-c3ncccc3F)nc3cnc(-c4ccccn4)cc32)C1O)c1ncc(Cl)s1 (centres unmarked) [Example 220] ; IC50 = ≤ 0.1 µM

###

Reported IC50 values for a set of molecules
molecular target: BCAT2 (Homo sapiens, UniProt O15382); assay: BCAT2 in vitro cell inhibition using engineered A549 cells (KMV cell assay, 13C6-KMV by LC-MS/MS); type: cell-based; design: The result was an engineered A549 cell line that expressed endogenous BCAT2; endogenous in cells; host or cells: A549 cells with MUT and BCAT1 knocked out by CRISPR/CAS9; conditions: average where tested multiple times

Here are 5 molecules together with their reported answers.
{"Molecule": "O=C(N[C@H]1CCC[C@@H](n2c(-c3ccccc3F)nc3cnc(-c4ccn[nH]4)cc32)[C@@H]1O)c1ncc(Cl)s1", "IC50": "≤ 100 nM"}
{"Molecule": "CC(=O)N1CC(NC(=O)c2ccc(Cl)s2)CC(n2c(CC(C)C)nc3cnc(-n4nccn4)cc32)C1 (centres unmarked)", "IC50": "100 to 500 nM"}
{"Molecule": "O=C(N[C@H]1C[C@H](O)C[C@@H](n2c(-c3ccccc3F)nc3cnc(F)cc32)C1)c1ncc(Cl)s1", "IC50": "≤ 100 nM"}
{"Molecule": "CO[C@H]1C[C@H](NC(=O)c2ncc(Cl)s2)C[C@H](n2c(CC(C)(C)C)nc3cnc(-c4ccccn4)cc32)C1 (single isomer, unassigned)", "IC50": "100 to 500 nM"}
{"Molecule": "O=C(N[C@H]1CCC[C@@H](n2c(-n3cccn3)nc3cnc(-n4nccn4)cc32)C1)c1ncc(C(F)F)s1", "IC50": "100 to 500 nM"}

Reported IC50 for Cn1ccc(-c2cc3c(cn2)nc(-c2ccccc2F)n3[C@@H]2CCC[C@H](NC(=O)c3ncc(Cl)s3)C2)n1 was ≤ 100 nM

Kindly note the recorded IC50 for O=C(N[C@H]1CCC[C@@H](n2c(-c3ncccc3F)nc3cnc(-c4nc[nH]n4)cc32)C1)c1ncc(C(F)F)s1 , which is ≤ 100 nM

IC50 in this record for CO[C@@H]1[C@@H](NC(=O)c2ncc(Cl)s2)CCC[C@H]1n1c(-c2ccccc2F)nc2cnc(-c3nc[nH]n3)cc21 : 500 to 1000 nM

The recorded IC50 for entry O=C(NC1CC(O)CC(n2c(-c3ccccc3F)nc3cnc(-n4nccn4)cc32)C1)c1ncc(Cl)s1 (centres unmarked) equals ≤ 100 nM

###

# Lookup of reported IC50 keyed by entry
Molecular target: BCAT2 (Homo sapiens)
Sequence (O15382 28-392): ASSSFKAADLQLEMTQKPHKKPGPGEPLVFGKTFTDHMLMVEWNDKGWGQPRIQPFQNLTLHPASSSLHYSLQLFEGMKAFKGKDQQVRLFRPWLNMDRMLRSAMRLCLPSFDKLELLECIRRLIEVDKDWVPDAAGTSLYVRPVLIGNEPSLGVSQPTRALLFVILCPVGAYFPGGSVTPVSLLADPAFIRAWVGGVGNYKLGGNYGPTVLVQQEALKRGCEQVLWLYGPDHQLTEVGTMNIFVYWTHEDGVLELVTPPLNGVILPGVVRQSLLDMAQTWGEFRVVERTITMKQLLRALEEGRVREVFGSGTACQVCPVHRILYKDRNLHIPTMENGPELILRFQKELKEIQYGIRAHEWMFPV
Assay: BCAT2 in vitro enzyme inhibition assay (resazurin/diaphorase-coupled fluorescence)
Type: biochemical
Conditions: average where tested multiple times

{"Compound": "O=C(N[C@@H]1CCCC[C@H](n2c(-c3ccccc3F)nc3cnc(-c4nc[nH]n4)cc32)[C@H]1O)c1ccc(Cl)s1", "IC50": "100 to 500 nM"}

Reported IC50 ( Cc1csc(-c2cc3c(cn2)nc(CC(C)C)n3[C@@H]2CCC[C@H](NC(=O)c3ncc(Cl)s3)C2)n1 ) = ≤ 100 nM

So for O=C(N[C@H]1CCC[C@@H](n2c(-c3ccccn3)nc3cnc(-n4cncn4)cc32)C1)c1ncc(C(F)F)s1 , the logged IC50 turned out to be 100 to 500 nM

Form field IC50, entry Cn1ccc(Oc2cc3c(cn2)nc(-c2ncccc2F)n3[C@@H]2CCC[C@H](NC(=O)c3ncc(C(F)F)s3)C2)n1 : 500 to 1000 nM

Reported IC50 of CC(C)Cc1nc2cnc(-c3ncccn3)cc2n1[C@@H]1CCC[C@H](NC(=O)c2ncc(Cl)s2)C1 : ≤ 100 nM

Value of measured IC50 for the entry CC(C)C(O)c1nc2cnc(-c3nc[nH]n3)cc2n1[C@@H]1CCC[C@H](NC(=O)c2ncc(Cl)s2)C1 (single isomer, unassigned) [Example 182] : ≤ 100 nM

For this compound ( CC(C)(C)Cc1nc2cnc(-c3ccccn3)cc2n1[C@@H]1CCC[C@H](NC(=O)c2ncc(Cl)s2)[C@H]1O ), measured IC50 is ≤ 100 nM

Record Cc1nc2cnc(-n3nccn3)cc2n1[C@@H]1CCC[C@H](NC(=O)c2ccc(Br)s2)C1 , field IC50: > 1000 nM

The measured IC50 associated with O=C(N[C@@H]1C[C@@H](O)C[C@H](n2c(-c3ccccc3F)nc3cnc(-c4ncco4)cc32)C1)c1ncc(Cl)s1 reads 100 to 500 nM

For this compound ( CC(C)Cc1nc2cnc(-c3ccccc3CC#N)cc2n1[C@@H]1CCC[C@H](NC(=O)c2ncc(Cl)s2)C1 ), measured IC50 is > 1000 nM

response.value for O=C(NC1CCCCC(n2c(-c3c(O)cccc3F)nc3cnc(-c4nc[nH]n4)cc32)C1O)c1ccc(Cl)s1 (centres unmarked) (field: IC50) = ≤ 100 nM

Query Cc1cnn(-c2cc3c(cn2)nc(-c2ccccc2F)n3[C@@H]2CCC[C@H](NC(=O)c3ncc(Cl)s3)[C@H]2O)n1 yields IC50 of ≤ 100 nM

Note to self: IC50 recorded for O=C(NN1CCCC(n2c(-c3ccccn3)nc3cnc(-n4nccn4)cc32)C1)c1ncc(C(F)F)s1 (centres unmarked) was > 1000 nM

// CC(C)Cc1nc2cnc(-c3ccccn3)cc2n1[C@@H]1CCC[C@H](NC(=O)c2ncc(Cl)s2)C1 : IC50 value = ≤ 100 nM
